This collection of values is drawn from PubChem BioAssay AID602.

# assay-summary: MRP1 drug-resistance reversers in H69AR cells – cell-based, doxorubicin co-treatment, primary screen (AID 602);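 further: viability without doxorubicin minus viability with 2 µM doxorubicin for each compound; larger differential means the compound sensitizes cells more to doxorubicin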
# particulars: H69AR cells + 2 uM doxorubicin, CellTiter-Glo, 72 h; at 10 µM; hits give high values
Among all 85,000 compounds or so, about 35 (0.04%) were called active. This is one part of a sample in which actives are shown more often than they occur.
Provide the recorded differential viability (reversal) for the entries that follow.
Give bare numbers, in %.

- compound: "Cc1cccc(OCCCC(=O)Nc2ccc(S(=O)(=O)N3CCCC3)cc2)c1"
  units-text: "%"
  differential viability (reversal): 6.98
- compound: "O=C(/C=C/NNC(=O)c1cccc(Br)c1)c1ccccc1"
  units-text: "%"
  differential viability (reversal): -16.9
- compound: "CCOC(=O)C1C(=O)NCC1c1ccccc1 (stereo not drawn)"
  units-text: "%"
  differential viability (reversal): 1.49
- compound: "CC(C)=C1SC(N2CCN(c3cccc(C)c3)CC2)=NC1=O"
  units-text: "%"
  differential viability (reversal): 15.1

Give measured differential viability (reversal) for every item shown.
1. Cc1ccc(S(=O)(=O)N2CCN(S(=O)(=O)N3CCOCC3)CC2)cc1
2. COC(=O)CCSc1cc([N+](=O)[O-])cc2c1c(C1OCCS1)nn2-c1ccccc1 (stereo not drawn)
3. COCCCNC(=O)CN1CCN(Cc2ccccc2Cl)C1=O
4. CCOc1cccc(C(=O)Nc2nnc(-c3cccs3)s2)c1

**A:**
1: 3.28; 2: -2.64; 3: 11.7; 4: -41.2

* * *

# assay-summary: MRP1 drug-resistance reversers in H69AR cells – cell-based, doxorubicin co-treatment, primary screen (AID 602);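 further: viability without doxorubicin minus viability with 2 µM doxorubicin for each compound; larger differential means the compound sensitizes cells more to doxorubicin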
# particulars: H69AR cells + 2 uM doxorubicin, CellTiter-Glo, 72 h; at 10 µM; hits give high values
The whole screen tested about 85,000 compounds, of which about 35 (0.04%) were called active. Shown is part of a subset that was picked to be rich in actives.
Provide the recorded differential viability (reversal) for the entries that follow.
Answers are plain numbers, in %.

- compound: "COc1ccc(-n2nc(C(=O)NCC(=O)Nc3cccc(C)n3)c3ccccc3c2=O)cc1"
  differential viability (reversal), %: -0.23
- compound: "CO/N=C(/CS(=O)(=O)c1ccc(Br)cc1)c1ccc(OC)cc1"
  differential viability (reversal), %: -26.9
- compound: "Cn1ccs/c1=N\\S(=O)(=O)c1ccc(C(C)(C)C)cc1"
  differential viability (reversal), %: 11.8
- compound: "CCOC(=O)C(C)Sc1nc2ccccc2c(=O)n1CC1CCCCC1 (stereo not drawn)"
  differential viability (reversal), %: 7.81
- compound: "CCCCC(C(=O)OCC(=O)c1ccc(OC)cc1)N1C(=O)c2ccccc2C1=O (stereo not drawn)"
  differential viability (reversal), %: -8.79
- compound: "CC1(C)COC(c2cccn2Cc2ccccc2Cl)=N1"
  differential viability (reversal), %: 13.1
- compound: "COC(=O)c1ccc(Sc2ccc(F)cc2)c(N)c1"
  differential viability (reversal), %: 11.2
- compound: "O=C(CSc1nnc(-c2cccnc2)n1CCc1ccccc1)NCc1ccccc1"
  differential viability (reversal), %: 20.9
- compound: "O=C(NCc1ccco1)C1(c2ccc(Cl)cc2)CCCC1"
  differential viability (reversal), %: -5.04
- compound: "CCC(C)(C)n1nnnc1CN1CCN(c2nc3ccc(C)cc3cc2C#N)CC1"
  differential viability (reversal), %: 0.16

Give measured differential viability (reversal) for every item shown.
1. CCOc1ccc(Nc2nc(Cc3nnc(SCC(=O)c4ccc(C)cc4)o3)cs2)cc1
2. Cc1nnc(OCC(=O)NCCC2=CCCCC2)c2ccccc12
3. O=C(Nc1nnc(SCc2ccccc2)s1)c1ccco1

**A:**
1. -4.34
2. -0.56
3. 5.76
